# PROTOCOL TEXT: Bioavailability of palonosetron as ocular drops vs. intravenous administration
# Assay type: in vivo, Beagle dogs
# CONDITION DETAILS: dog, other: ocular drops (administered in the eye); 30 μg/kg ocular drops (Formulation Example 1) vs. 10 μg/kg i.v., Beagle dogs (n=6), plasma
MEASURED ENDPOINT: bioavailability (%)
// note: answer is a bare numeric in %

Param item = O=C1c2cccc3c2[C@H](CCC3)CN1[C@@H]1CN2CCC1CC2 ; retrieve measured bioavailability. 65.6

The values you see were collected from patent US11433021B2.
